Reference source for all entries: paper doi:10.1101/2024.06.26.600905

- Target Of Assay: His6-SPAK CCT (mouse SPAK 459-556) (mouse) (UniProt Q9Z1W9)
- Test Summary: fluorescence polarisation
Attribute Measured: Ki (nM)
Please respond with the number in nM and leave the unit unwritten.

Given the entry H-SAGRRFIVSPVPE-OH [hWNK1 1253-1265 wild type peptide NH3+-…-COO-] , report its measured Ki.
2500
